- target_under_test: T1, B Lymphocyte Stimulator, soluble form (human) (human, UniProt Q9Y275 134-285, biotinylated with NHS-biotin where used as biotinylated B Lymphocyte Stimulator)
- T1 construct: Coated on plastic, captured on streptavidin plates, amine-coupled to a CM5 chip or free in solution, depending on the assay; also called BLyS; immobilized B Lymphocyte Stimulator
- assay_comment: phage ELISA

{"columns": ["binder", "binding result"],
 "data": [
  ["I068B04 (scFv) scFv: QVQLVQSGAEVKKPGSSVKVSCKASGGTVSSRTISWVRQAPGQGLEWMGGSLPPSGAPIYAQKFQGRVAITADALTNTAFMELRSLKSDDTAVYYCARDQGRYLDLWGRGTLVTVSSGGGGSGGGGSGGGGSALPVLTQPPSASATPGQRVTISCSGSSSNIGSNYVYWYQQLPGTAPKVLIYRNNQRPSGVPDRFSGSRSGTSASLAISGLRSEDEADYYCATWDDSLSGPVFGGGTKVTVLG", "binds"],
  ["I068F03 (scFv) scFv: EVQLVQSGADVKKPGASVKVSCKASHYPFTTYGVSWVRQAPGQGLEWMGWISNYNGHTRYAPKFQGRVTLTTDTLTNTAFMELKSLTSDDTAIYYCARAGNEYGHTERPADYWGKGTMVTVSSGGGGSGGGGSGGGGSAQAVLTQPSSVSGAPGQRVTISCTGSSSNIGAGYDVHWYQQLPGTTPKLLISRNNNRPPGVPDRFSGSKSGTSASLAITGLQAEDEADYYCQSYDTTLRGWVFGGGTKVTVLG", "binds"],
  ["I006E07 (scFv) scFv: QVQLQQSGAEEKKPGASVKVSCKASGYTFTSYAMHWVRQAPGQRLEWMGWINAGNGNTKYSQKFQGRVAITRDTSASTAYMELSSLRSEDTAVYYCARADYDILTGYSPLTYGMDVWGRGTLVTVSSGGGGSGGGGSGGGGSDIQMTQSPSTLSASIGDRVTITCRASEGIYHWLAWYQQKPGKAPKLLIYKASSLASGAPSRFSGSGSGTDFTLTISSLQPDDFATYYCQQYSNYPLTFGGGTKLEIKR", "binds"]
]}
